Entry source: patent US20070077617

- Target of assay: fusion protein PRC
- Sequence (chain, as listed by the source): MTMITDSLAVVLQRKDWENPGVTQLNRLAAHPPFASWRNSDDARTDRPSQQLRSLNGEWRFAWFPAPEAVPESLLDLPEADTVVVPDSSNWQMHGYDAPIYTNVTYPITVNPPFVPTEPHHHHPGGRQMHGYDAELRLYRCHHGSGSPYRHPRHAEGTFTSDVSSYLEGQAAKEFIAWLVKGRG

{"Protein": "OmpT protease variant OmpT D97V (protein) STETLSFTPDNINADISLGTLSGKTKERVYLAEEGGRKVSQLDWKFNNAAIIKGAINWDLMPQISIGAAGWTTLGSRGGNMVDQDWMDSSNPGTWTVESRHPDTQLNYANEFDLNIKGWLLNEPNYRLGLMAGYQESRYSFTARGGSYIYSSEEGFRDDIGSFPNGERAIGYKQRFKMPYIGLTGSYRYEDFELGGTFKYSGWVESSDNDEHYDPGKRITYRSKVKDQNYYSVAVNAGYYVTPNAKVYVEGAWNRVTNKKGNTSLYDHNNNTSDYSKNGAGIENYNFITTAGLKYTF", "relative cleavage efficiency": "less than 3.0%"}
{"Protein": "OmpT protease variant OmpT D97I (protein) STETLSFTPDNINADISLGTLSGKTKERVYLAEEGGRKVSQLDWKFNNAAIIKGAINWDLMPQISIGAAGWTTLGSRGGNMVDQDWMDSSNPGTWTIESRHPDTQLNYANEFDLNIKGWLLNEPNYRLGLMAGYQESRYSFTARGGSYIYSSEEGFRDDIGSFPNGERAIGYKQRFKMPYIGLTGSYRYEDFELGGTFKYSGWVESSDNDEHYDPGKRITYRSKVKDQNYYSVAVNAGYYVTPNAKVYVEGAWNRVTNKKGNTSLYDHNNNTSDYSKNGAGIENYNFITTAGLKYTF", "relative cleavage efficiency": "less than 3.0%"}
{"Protein": "OmpT protease variant OmpT D97P (protein) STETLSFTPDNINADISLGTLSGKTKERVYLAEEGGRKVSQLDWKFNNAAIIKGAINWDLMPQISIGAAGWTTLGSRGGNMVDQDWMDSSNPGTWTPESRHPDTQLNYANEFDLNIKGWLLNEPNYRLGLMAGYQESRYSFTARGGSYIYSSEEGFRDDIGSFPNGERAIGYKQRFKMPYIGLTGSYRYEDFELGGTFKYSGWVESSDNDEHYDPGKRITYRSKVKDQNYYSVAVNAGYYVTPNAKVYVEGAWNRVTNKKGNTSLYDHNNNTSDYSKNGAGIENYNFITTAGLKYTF", "relative cleavage efficiency": "less than 3.0%"}
{"Protein": "OmpT protease variant OmpT D97R (protein) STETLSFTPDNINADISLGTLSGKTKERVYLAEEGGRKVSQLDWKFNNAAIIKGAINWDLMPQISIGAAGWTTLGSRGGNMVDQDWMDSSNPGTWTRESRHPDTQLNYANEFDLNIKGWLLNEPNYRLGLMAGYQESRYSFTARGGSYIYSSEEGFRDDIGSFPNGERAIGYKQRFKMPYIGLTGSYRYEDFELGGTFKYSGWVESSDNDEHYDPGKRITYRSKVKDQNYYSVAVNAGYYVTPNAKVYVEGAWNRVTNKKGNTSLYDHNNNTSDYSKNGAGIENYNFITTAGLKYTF", "relative cleavage efficiency": "less than 3.0%"}
{"Protein": "OmpT protease variant OmpT D97F (protein) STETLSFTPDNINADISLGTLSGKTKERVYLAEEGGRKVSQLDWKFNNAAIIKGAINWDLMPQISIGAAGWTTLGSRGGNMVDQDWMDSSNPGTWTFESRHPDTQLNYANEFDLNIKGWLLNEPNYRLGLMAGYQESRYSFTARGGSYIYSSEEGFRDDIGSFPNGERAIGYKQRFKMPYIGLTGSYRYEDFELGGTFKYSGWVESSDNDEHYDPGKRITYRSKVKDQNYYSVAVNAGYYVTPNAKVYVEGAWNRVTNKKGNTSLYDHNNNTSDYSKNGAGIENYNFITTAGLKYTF", "relative cleavage efficiency": "< 3%"}
